Form field: GI50 (one value per entry).
# Tested on: UACC-62
# ASSAY DETAILS: NCI tumour cell line growth inhibition, 48 h
Calls of active or inactive are those of the source. Cut-off read from the data, not from the text of the source: active = GI50 up to about 1.1 µM and inactive = higher.

Return GI50 (reported value) for this compound: "NC(C(F)(F)F)(C(F)(F)F)P(=O)(c1ccccc1)c1ccccc1" > 100 µM (inactive)

Tell me its GI50 given "S=C(Nc1ccc2c(c1)oc1ccccc12)c1cccs1" as the entry. 82.8 µM (inactive)

Assign GI50 to the following record: "N=C(N)c1ccc(/C=C/c2ccc(C(=N)N)cc2)cc1" 97.9 µM (inactive)

Return reported GI50. Input compound: CN(C)CC1CN/C(=N\C(=O)Nc2ccccc2)O1 (configuration not stated) > 100 µM (inactive)

Give GI50 for "CCOc1cc(NC(C)=O)ccc1C(=O)N/N=C/c1ccco1" 77.3 µM (inactive)

For the compound "CCOC(=O)[C@H]1Nc2c(cccc2[N+](=O)[O-])[C@H]2OCC[C@@H]12" , give its reported GI50. > 100 µM (inactive)

---

# System: NCI-H23
# ASSAY DETAILS: NCI tumour cell line growth inhibition, 48 h
Active and inactive are the calls of the source. Cut-off read from the data, not from the text of the source: active = GI50 up to about 1.1 µM and inactive = higher.
REPORTED METRIC: GI50

Here's what some known entries look like.
CCCC(=O)c1c(NOC2OC(COC(C)=O)C(OC(C)=O)C(OC(C)=O)C2OC(C)=O)nc(OC)n(C)c1=O (stereo unspecified)    > 100 µM (inactive)
Cc1c(Cc2ccccc2)c(Cc2ccccc2)c(C)[s+]1[O-]    28.3 µM (inactive)
C=C1C(C(=O)O)C1C(=O)O (stereo unspecified)    > 100 µM (inactive)
CC(Cc1cccc2c1Nc1ccccc1S2)N(C)CCO (stereo unspecified)    > 100 µM (inactive)

For "Cc1cccc2oc3c(CC(=O)O)cccc3c(=O)c12" , write its GI50. > 100 µM (inactive)

Report GI50, nothing else, for this compound: "COc1ccc(C=C2C(=O)OC(C)(C)OC2=O)cc1OC" > 100 µM (inactive)

Specify measured GI50 for "CCSc1nc(N)c2c(-c3ccccc3)c3c(nc2n1)CCC3" . > 100 µM (inactive)

For the compound COc1ccc(/C=C2\CCC(C)c3c2nc(N)c(C#N)c3-c2ccc(OC)c(OC)c2)cc1OC (stereo unspecified) , give its reported GI50. 5.6 µM (inactive)

Indicate the recorded GI50 value for this compound: "CCOC(=O)CSc1nc(N)c2c(-c3ccccc3)c3c(nc2n1)CCCC3" > 100 µM (inactive)

Tell us which GI50 value is on record for "COC(=O)c1ccccc1C#CCCCOS(C)(=O)=O" > 10 µM (inactive)

Entry "S=C(NCc1ccccc1)c1nc[nH]c1C(=S)NCc1ccccc1" needs its GI50 filled in; supply it. 6.93 µM (inactive)

---

# Tested on: SF-539
# ASSAY DETAILS: NCI tumour cell line growth inhibition, 48 h
Active and inactive are the calls of the source. Rule as the data show it: active = GI50 up to about 1.1 µM and inactive = higher. Non-standard residues stand in square brackets, D forms with d. Residues, ends and D or L forms follow the SMILES beside them. *: point of attachment. Phe(4-NO2) = N[CH](Cc1ccc([N+](=O)[O-])cc1)C(=O)O; Boc = CC(C)(C)OC(=O)*
Response enum: 1 (yes) (active), 0 (no) (inactive)

CCC(C)C(NC(=O)c1c2ccccc2nc2ccccc12)C(=O)O (stereo not drawn)    0 (no)
O=C(O)CCSC(=O)Nc1cccc([N+](=O)[O-])c1    0 (no)
Cn1ccnc1Oc1ccc(Cl)cc1    0 (no)

Field: outcome | Entry: O=C1CCC2CCc3cccc4oc1c2c34 (stereo not drawn) 0 (no)

// outcome(item) with item = CCOC(=O)NC1C2CC(=O)C(O2)C1OCc1ccccc1 (stereo not drawn) 0 (no)

What is the recorded call for this compound in the test? "S=c1sc2c(Cl)ncnc2n1-c1ccccc1" 0 (no)

Tell me the recorded outcome of this test for [N-]=[N+]=NC(CCl)c1cn([C@H]2C[C@H](O)[C@@H](CO)O2)c(=O)[nH]c1=O (stereo partly drawn) . 0 (no)

Returns: the outcome recorded for "CCCN(CCC)C(=S)Sc1nc(C)nc(N2CCN(c3nc(C)nc(SC(=S)N(CCC)CCC)c3[N+](=O)[O-])CC2)c1[N+](=O)[O-]" in this assay. 0 (no)

How was "C[C@]12C=CC(=O)C=C1CC[C@@H]1[C@@H]2CC[C@]2(C)OC(=O)CC[C@@H]12" classified in this test? 0 (no)

Look up the recorded call for COC(=O)CCC(NC(=O)OC(C)(C)C)C(=O)NC(Cc1ccc([N+](=O)[O-])cc1)C(=O)NC(CCC(=O)OC)C(=O)OC (stereo not drawn) (Boc-Glu(OMe)-[Phe(4-NO2)]-Glu(OMe)-OMe; configuration not given here) in this test. 0 (no)

I'd appreciate the recorded outcome for "NNC(=O)c1ccccc1NC(=O)/C(=C/c1ccccc1)NC(=O)c1ccccc1" from this test. 0 (no)

// param item: "O=C(/C=C/c1ccccc1)Nc1ccccc1SCCCCl" ; yields the recorded call 0 (no)

For this compound, state the assay outcome: "COc1ccccc1NC(=O)/C(Cc1nc2ccc([N+](=O)[O-])cc2nc1O)=N\NC(=O)C[N+](C)(C)C" 0 (no)

Name the outcome recorded for "CC(=O)CC(=O)Nc1ccccc1[N+](=O)[O-]" in the assay. 0 (no)

Could you kindly confirm the outcome this assay logged for "CC(=O)Nc1ccc(OC/C(N)=N/NC(=O)c2ccncc2)cc1" ? 0 (no)

What is the recorded call for this compound in the test? "CCSc1nc(N)c2c(-c3ccccc3)c3c(nc2n1)CCC3" 0 (no)

Could you kindly confirm the outcome this assay logged for "Cc1cc(NS(=O)(=O)c2ccc(NC(=O)c3ccc4nc5ccccc5c(Nc5ccc(S(=O)(=O)N=C(N)N)cc5)c4c3)cc2)no1" ? 0 (no)

Which outcome was entered for the compound [O-][S+]1c2ccccc2NC(c2ccc3ccccc3c2)CC1c1ccccc1 (stereo not drawn) in this test? 0 (no)

What outcome does the record of this test show for "Cc1cc2nc(N3C(=O)/C(=C/Cc4ccco4)N=C3c3ccccc3)sc2cc1C" ? 0 (no)

// param item: "O=C(CN(c1ccccc1)c1ccccc1)n1nnc2ccccc21" ; yields the recorded call 0 (no)

Would you mind telling me which call this test gave CCOC(=O)C(NC(=O)c1nc[nH]c1[N+](=O)[O-])C(C)C (stereo not drawn) ? 0 (no)

Please share the test call associated with "CC(=O)NCCc1c[nH]c2ccc(Cl)cc12" . 0 (no)

Please let me know the test result on file for "O=S(=O)(c1ccccc1)c1ccc(-c2nc(-c3ccc4c(c3)Sc3ccccc3S4)cs2)cc1" . 0 (no)
